Target: UniProtKB P33261
Sequence (P33261 whole entry): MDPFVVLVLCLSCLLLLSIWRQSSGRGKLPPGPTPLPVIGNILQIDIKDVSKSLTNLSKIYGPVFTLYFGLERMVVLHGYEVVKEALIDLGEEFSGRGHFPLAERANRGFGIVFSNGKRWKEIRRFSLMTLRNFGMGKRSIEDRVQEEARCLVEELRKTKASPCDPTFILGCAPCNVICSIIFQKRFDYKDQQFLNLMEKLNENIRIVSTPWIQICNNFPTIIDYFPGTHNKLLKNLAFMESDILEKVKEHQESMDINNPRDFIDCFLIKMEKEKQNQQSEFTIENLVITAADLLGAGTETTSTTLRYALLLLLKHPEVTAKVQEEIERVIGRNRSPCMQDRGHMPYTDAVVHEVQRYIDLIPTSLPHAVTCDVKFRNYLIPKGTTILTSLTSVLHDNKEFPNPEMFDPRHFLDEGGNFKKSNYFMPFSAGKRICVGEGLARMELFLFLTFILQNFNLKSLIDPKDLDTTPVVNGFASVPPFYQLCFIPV
Assay: Cytochrome panel assay with activity outcomes. Panel member name: p450-cyp2c19 Compounds with AC50 equal or less than 10 uM are considered active
Type: functional
Details: read-out: AC50
MEASUREMENT_LABEL: AC50

CC(=O)Nc1ccccc1C(=O)OCC(=O)c1ccc2ccccc2c1; 1.26 µM (inconclusive)

Ask: Using the record for CCSc1nnc(NC(=O)Cc2ccc(OC)c(OC)c2)s1 , state its measured AC50.
Reply: 28.2 µM (inconclusive)

Ask: Supply recorded AC50 for Cc1cnc(CNc2ncnc3ccc(-c4ccccc4C(F)(F)F)cc23)cn1 here.
Reply: 20 µM (inconclusive)

Ask: Give reported AC50 value for C=CCC(C(=O)OC)(C(=O)OC)c1ccc([N+](=O)[O-])cn1
Reply: 14.1 µM (inconclusive)

Ask: Tell me its AC50 given COC(=O)[C@@]1(Cc2ccc(OC)cc2)[C@H]2c3cc(C(=O)N4CCCC4)n(Cc4cc(F)c(F)c(F)c4)c3C[C@H]2CN1C(=O)c1ccccc1 as the entry.
Reply: 1.58 µM (inconclusive)

src = ChEMBL document CHEMBL1201862
